Target: PD1/PD-L1 (Homo sapiens)
Test: NFAT activity test (TCR Activitor/PD-L1 CHO cells with PD-1/NFAT Reporter-Jurkat cells)
Format: cell-based
Design: host or cells: TCR Activitor/PD-L1 CHO cells; PD-1/NFAT Reporter-Jurkat cells
Settings: TCR Activitor/PD-L1 CHO cells + PD-1/NFAT Reporter-Jurkat cells, 5 hours, luciferase; read-out: IC50, inhibitory activity on PD1/PD-L1 binding (NFAT activity test)
Sequence (Q9NZQ7 19-290): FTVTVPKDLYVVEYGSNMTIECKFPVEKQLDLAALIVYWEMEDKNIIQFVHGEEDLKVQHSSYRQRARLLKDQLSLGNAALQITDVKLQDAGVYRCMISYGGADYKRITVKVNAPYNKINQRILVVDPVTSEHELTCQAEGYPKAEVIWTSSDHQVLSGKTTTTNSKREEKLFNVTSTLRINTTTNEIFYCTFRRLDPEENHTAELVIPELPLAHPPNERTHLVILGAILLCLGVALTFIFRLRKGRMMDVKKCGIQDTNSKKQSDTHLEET
QUANTITY NAME: IC50 (µM)

Guide cases for IC50, answers given:
Cc1c(NC(=O)c2ccc(CNCCO)cn2)cccc1-c1cccc(NC(=O)c2cc(NCCO)c3c(n2)CN(CCO)CC3)c1Cl [Compound 18] ... 0.0797
COc1nc(-c2cccc(-c3cccc(NC(=O)c4cc(C)c5c(n4)CN(CCO)CC5)c3Cl)c2Cl)cnc1CN1CCCC1CO (stereo not shown) [Compound 40] ... 0.0461
COc1nc(-c2cccc(-c3cccc(NC(=O)c4cc(OCc5cncc(C#N)c5)c5c(n4)CN(CCO)CC5)c3Cl)c2Cl)cnc1CN1CC(O)C1 [Compound 51] ... 0.0479
COc1nc(-c2cccc(-c3cccc(NC(=O)c4cc(OC(F)F)c5c(n4)CN(CCO)CC5)c3Cl)c2Cl)cnc1CN1CC(C)(O)C1 [Compound 63] ... 0.142
COc1nc(-c2cccc(-c3cccc(NC(=O)c4cc(C)c5c(n4)CN(CCO)CC5)c3Cl)c2Cl)cnc1CN1CC(CO)C1 [Compound 35] ... 0.0175

[P] COc1nc(-c2cccc(-c3cccc(NC(=O)c4cc(OCC#N)c5c(n4)CN(CCO)CC5)c3Cl)c2Cl)cnc1CN1CC(O)C1 [Compound 52]
[Q] COc1nc(-c2cccc(-c3cccc(NC(=O)c4cc(C)c5c(n4)CN(C(C)CO)CC5)c3Cl)c2Cl)cnc1CN1CC(O)C1 (stereo not shown) [Compound 27]
[R] COc1nc(-c2cccc(-c3cccc(NC(=O)c4cc(C)c5c(n4)CN(CCO)CC5)c3Cl)c2Cl)cnc1CN1CCC(CO)C1 (stereo not shown) [Compound 33]
Exercise: Write the entries in order, lowest recorded IC50 first. Please list the labels in the order you were asked to rank them.
Key: R, Q, P
(R: 0.0189 µM, Q: 0.0289 µM, P: 0.0515 µM)

* * *

Experiment: Pharmacokinetic test in C57BL/6 mice
Assay type: in vivo
Conditions: mouse; male C57BL/6 mice, plasma; IV 1 mg/kg; read-out: Clearance CL
Experimental: Experimental Example 4: Pharmacokinetic Test Experimental purpose: To study the pharmacokinetics of compounds in C57BL/6 mice. Experimental materials: C57BL/6 mice (male, 8 weeks old, body weight 25 g-30 g) Experimental operation: The pharmacokinetic characteristics of rodents after intravenous (IV) and oral (PO) administration of compounds were tested in standard protocols. […]
QUANTITY NAME: clearance (mL/min/kg)

COc1nc(-c2cccc(-c3cccc(NC(=O)c4cc(C)c5c(n4)CN(CCO)CC5)c3Cl)c2Cl)cnc1CN1CC(O)C1 [Compound 21] ... 98.4

[I] COc1nc(-c2cccc(-c3cccc(NC(=O)c4cc(C)c5c(n4)CN(CCO)C5)c3Cl)c2Cl)cnc1CN1CC(O)C1 [Compound 50]
[II] COc1cc(C(=O)Nc2cccc(-c3cccc(-c4cnc(CN5CC(C)(O)C5)c(OC)n4)c3Cl)c2Cl)nc2c1CCN(CCO)C2 [Compound 42]
Exercise: Please compare: I and II . Report which one has the smaller clearance value. Respond using the label that marks the chosen record.
Key: II
(II: 36.6 mL/min/kg, I: 85.5 mL/min/kg)

* * *

Test: Pharmacokinetic test in C57BL/6 mice
Format: in vivo
Conditions: mouse; male C57BL/6 mice, plasma; IV 1 mg/kg; read-out: Half-life T1/2 (IV) (converted)
QUANTITY NAME: half-life (h)

COc1nc(-c2cccc(-c3cccc(NC(=O)c4cc(C)c5c(n4)CN(CCO)CC5)c3Cl)c2Cl)cnc1CN1CC(O)C1 [Compound 21] ... 11.6

[1] COc1cc(C(=O)Nc2cccc(-c3cccc(-c4cnc(CN5CC(C)(O)C5)c(OC)n4)c3Cl)c2Cl)nc2c1CCN(CCO)C2 [Compound 42]
[2] COc1nc(-c2cccc(-c3cccc(NC(=O)c4cc(C)c5c(n4)CN(CCO)C5)c3Cl)c2Cl)cnc1CN1CC(O)C1 [Compound 50]
Exercise: Of 1 and 2 , whose reported half-life is the larger number? Respond using the label that marks the chosen record.
Key: 1
(1: 16.4 h, 2: 3.72 h)

* * *

Biological target: PD1/PD-L1 (Homo sapiens, UniProt Q9NZQ7)
Assay: NFAT activity test (TCR Activitor/PD-L1 CHO cells with PD-1/NFAT Reporter-Jurkat cells)
Assay type: cell-based
Design: host or cells: TCR Activitor/PD-L1 CHO cells; PD-1/NFAT Reporter-Jurkat cells
Conditions: TCR Activitor/PD-L1 CHO cells + PD-1/NFAT Reporter-Jurkat cells, 5 hours, luciferase; read-out: IC50, inhibitory activity on PD1/PD-L1 binding (NFAT activity test)
QUANTITY NAME: IC50 (µM)

COc1nc(-c2cccc(-c3cccc(NC(=O)c4cc(C)c5c(n4)CN(CCO)CC5)c3Cl)c2Cl)cnc1CN1CCC2(CNC(=O)C2)C1 (stereo not drawn) ... 0.0522
COc1nc(-c2cccc(-c3cccc(NC(=O)c4cc(C)c5c(n4)CN(CC(C)(C)O)CC5)c3Cl)c2Cl)cnc1CN1CC(O)C1 ... 0.0348
COc1cc(C(=O)Nc2cccc(-c3cccc(-c4cnc(CNCCO)c(OC)n4)c3Cl)c2Cl)nc2c1CCN(CCO)C2 ... 0.0385
COc1nc(-c2cccc(-c3cccc(NC(=O)c4cc(C)c5c(n4)CN(CCO)CC5)c3Cl)c2Cl)cnc1CN[C@H]1C[C@](C)(O)C1 ... 0.0447

[1] COc1nc(-c2cccc(-c3cccc(NC(=O)c4cc(C#N)c5c(n4)CN(CCO)CC5)c3Cl)c2Cl)cnc1CN1CC(O)C1
[2] Cc1cc(C(=O)Nc2cccc(-c3cccc(NC(=O)c4ccc(CNCCO)cn4)c3C)c2Cl)nc2c1CCN(CC(=O)O)C2
Exercise: Please compare: 1 and 2 . Report which one has the smaller IC50 value. Respond using the label that marks the chosen record.
Key: 2

* * *

Molecular target: PD1/PD-L1 (Homo sapiens)
Test: NFAT activity test (TCR Activitor/PD-L1 CHO cells with PD-1/NFAT Reporter-Jurkat cells)
Assay type: cell-based
Set-up: host or cells: TCR Activitor/PD-L1 CHO cells; PD-1/NFAT Reporter-Jurkat cells
Details: TCR Activitor/PD-L1 CHO cells + PD-1/NFAT Reporter-Jurkat cells, 5 hours, luciferase
QUANTITY NAME: Maximum effect (induction fold)

COc1cc(C(=O)Nc2cccc(-c3cccc(-c4cnc(CN5CC6(CC(O)C6)C5)c(OC)n4)c3Cl)c2Cl)nc2c1CCN(CCO)C2 [Compound 53] ... 3.81
COc1nc(-c2cccc(-c3cccc(NC(=O)c4cc(C)c5c(n4)CN(CCO)CC5)c3Cl)c2Cl)cnc1CN1CC(O)C1 [Compound 21] ... 3.96
COc1nc(-c2cccc(-c3cccc(NC(=O)c4cc(C#N)c5c(n4)CN(CCO)CC5)c3Cl)c2Cl)cnc1CN1CC(C)(O)C1 [Compound 58] ... 5.01
COc1nc(-c2cccc(-c3cccc(NC(=O)c4cc(C)c5c(n4)CN(CCO)CC5)c3Cl)c2Cl)cnc1CN[C@H]1C[C@](C)(O)C1 [Compound 34] ... 4.09
COc1nc(-c2cccc(-c3cccc(NC(=O)c4cc(OCc5cncc(C#N)c5)c5c(n4)CN(CCO)CC5)c3Cl)c2Cl)cnc1CN1CC(O)C1 [Compound 51] ... 4.28
COc1nc(-c2cccc(-c3cccc(NC(=O)c4cc(C)c5c(n4)CN(CC(C)(C)O)CC5)c3Cl)c2Cl)cnc1CN1CC(O)C1 [Compound 28] ... 3.63

* * *

Target: PD1/PD-L1 (Homo sapiens, UniProt Q9NZQ7)
Experiment: PD-1/PD-L1 homogeneous time-resolved fluorescence (HTRF) binding experiment
Parameters: purchased BPS Biosciences
Conditions: HTRF (TR-FRET), PD-L1-biotin, PD1-Eu
Sequence (Q9NZQ7 19-239 limits assumed): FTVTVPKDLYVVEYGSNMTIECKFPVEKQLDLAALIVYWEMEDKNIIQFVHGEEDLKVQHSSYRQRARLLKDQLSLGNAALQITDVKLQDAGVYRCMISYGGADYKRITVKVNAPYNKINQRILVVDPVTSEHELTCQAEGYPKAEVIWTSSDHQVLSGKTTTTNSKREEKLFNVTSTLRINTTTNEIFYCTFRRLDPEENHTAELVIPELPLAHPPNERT
pIC50: −log10 of the molar value.
QUANTITY NAME: pIC50

Guide cases for pIC50, answers given:
Cc1cc(C(=O)Nc2cccc(-c3cccc(Nc4nc(C(F)F)nc5cc(CN6CC[C@@H](O)C6)cnc45)c3C)c2Cl)nc2c1CCN(CC(=O)O)C2 ... 8.43
Cc1cc(C(=O)Nc2cccc(-c3cccc(NC(=O)c4ccc(CNCCO)cn4)c3C)c2C#N)nc2c1CCN(CCO)C2 ... 8.49

[a] Cc1cc(C(=O)Nc2cccc(-c3cccc(NC(=O)c4ccc(CNCCO)cn4)c3C)c2Cl)nc2c1CCN(C(CO)CO)C2
[b] Cc1cc(C(=O)Nc2cccc(-c3cccc(NC(=O)c4ccc(CNCCO)cn4)c3C)c2Cl)nc2c1CCN(C1CCC(O)CC1)C2 (stereo not shown)
Exercise: Of a and b , whose reported pIC50 is the larger number? Respond using the label that marks the chosen record.
Key: a
(a: 8.34, b: 8.05)

All figures here come from patent US20220402917A1.
